Molecular target: CaFus1
Experiment: SPOT peptide array binding signal intensity (averaged, normalized) (arbitrary units (background-subtracted, floor 0; scale differs between SH3 domains)); higher = stronger binding of the SH3 domain to the peptide
VALUE KIND: SPOT peptide array binding signal intensity
Answers are plain numbers.

Would you please look over these solved cases?
SPOT peptide array binding signal intensity in this record for SKIRPTPRKPSRMAT : 208

SPOT peptide array binding signal intensity in this record for LEFRAILFIPKRAPF : 5550

SPOT peptide array binding signal intensity in this record for RPVPRRPSQPLNTLS : 141

SPOT peptide array binding signal intensity in this record for PSTMDFPKLPSFQNS : 1020

Others:
SPOT peptide array binding signal intensity in this record for QHQQRQPKRPKRYSL : 126
